The origin of these recorded values is patent US20260297081A1.

Molecular target: CDK4 (Homo sapiens, UniProt P11802+Q16531)
Sequence (P11802 2-303 limits assumed): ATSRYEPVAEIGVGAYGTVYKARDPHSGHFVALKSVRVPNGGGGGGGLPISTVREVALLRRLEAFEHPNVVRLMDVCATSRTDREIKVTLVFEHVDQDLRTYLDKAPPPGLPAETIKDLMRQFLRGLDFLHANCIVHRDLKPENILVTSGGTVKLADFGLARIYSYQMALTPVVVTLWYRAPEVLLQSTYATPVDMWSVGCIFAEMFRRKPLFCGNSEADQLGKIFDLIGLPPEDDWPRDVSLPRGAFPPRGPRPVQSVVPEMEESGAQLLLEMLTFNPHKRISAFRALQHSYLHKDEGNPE
Sequence (P24385 whole entry partner): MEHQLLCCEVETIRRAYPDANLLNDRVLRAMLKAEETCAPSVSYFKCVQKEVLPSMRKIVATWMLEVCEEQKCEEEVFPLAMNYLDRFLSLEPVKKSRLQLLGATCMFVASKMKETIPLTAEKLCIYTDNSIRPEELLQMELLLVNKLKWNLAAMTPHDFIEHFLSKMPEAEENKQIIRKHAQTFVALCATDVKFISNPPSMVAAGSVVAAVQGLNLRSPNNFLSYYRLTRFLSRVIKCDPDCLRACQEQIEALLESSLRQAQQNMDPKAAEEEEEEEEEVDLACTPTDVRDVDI
Sequence (Q16531 2-1140 limits assumed): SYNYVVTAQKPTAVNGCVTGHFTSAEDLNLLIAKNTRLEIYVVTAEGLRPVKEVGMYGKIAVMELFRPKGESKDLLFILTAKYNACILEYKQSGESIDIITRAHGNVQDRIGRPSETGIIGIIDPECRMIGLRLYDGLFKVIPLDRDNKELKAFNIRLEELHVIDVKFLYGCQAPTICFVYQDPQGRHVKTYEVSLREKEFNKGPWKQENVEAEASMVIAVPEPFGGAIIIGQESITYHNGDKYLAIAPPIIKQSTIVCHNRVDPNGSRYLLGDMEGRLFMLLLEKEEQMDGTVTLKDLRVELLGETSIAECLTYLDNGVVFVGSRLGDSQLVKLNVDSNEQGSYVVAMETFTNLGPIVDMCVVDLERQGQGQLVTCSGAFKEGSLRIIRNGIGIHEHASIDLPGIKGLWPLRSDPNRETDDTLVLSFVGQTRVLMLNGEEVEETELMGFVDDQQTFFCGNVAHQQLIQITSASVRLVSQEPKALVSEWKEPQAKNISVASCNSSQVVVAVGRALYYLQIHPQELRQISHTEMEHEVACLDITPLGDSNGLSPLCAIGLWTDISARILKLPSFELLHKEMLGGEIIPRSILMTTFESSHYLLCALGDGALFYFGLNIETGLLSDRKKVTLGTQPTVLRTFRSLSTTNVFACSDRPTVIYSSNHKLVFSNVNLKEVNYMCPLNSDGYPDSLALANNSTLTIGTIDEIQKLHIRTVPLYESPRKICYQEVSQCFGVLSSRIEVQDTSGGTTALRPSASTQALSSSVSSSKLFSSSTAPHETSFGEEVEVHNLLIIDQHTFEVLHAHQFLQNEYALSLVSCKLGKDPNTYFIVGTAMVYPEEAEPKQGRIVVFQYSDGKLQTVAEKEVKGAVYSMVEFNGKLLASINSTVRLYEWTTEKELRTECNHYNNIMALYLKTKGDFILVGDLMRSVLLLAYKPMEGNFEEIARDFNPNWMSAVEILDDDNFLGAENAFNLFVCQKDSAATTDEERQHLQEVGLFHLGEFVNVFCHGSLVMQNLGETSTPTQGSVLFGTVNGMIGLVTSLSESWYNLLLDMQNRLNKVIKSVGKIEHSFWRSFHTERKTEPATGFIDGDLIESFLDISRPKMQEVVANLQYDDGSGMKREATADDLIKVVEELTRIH
Test: CDK4 percentage degradation in Calu-1 cells (Table 6)
Type: cell-based
Set-up: Cells that express cyclin D1-3 and CDK4/6 proteins were treated with heterobifunctional compounds; endogenous in cells; host or cells: Calu-1
Conditions: 40 nM, 16 hours
Protocol: Calu-(cells were treated with heterobifunctional compounds at 40 nM or 200 nM for 16 hours A: protein percentage degradation […]; B: protein percentage degradation <80%, and ≥50%; C: protein percentage degradation <50%, and ≥30%; D; protein percentage degradation […]; -, data not available. Calu-1, T47D, MCF7, HCC1428 and other cells were cultured at 37° C. with 5% CO2 in RPMI 1640 or DMEM medium supplemented with 10% fetal bovine serum. […]
READOUT: inhibition at 0.04 µM

>>> result("CNc1ccc(C(=O)Nc2cccc(=O)[nH]2)c(NC2CC3(CC(NC(=O)CN4CCN(c5ccc(Nc6ncc7c(C)c(C(C)=O)c(=O)n(C8CCCC8)c7n6)nc5)CC4)C3)C2)n1 (centres unmarked) [CPD-122]")
"30 to 50%"
>>> result("CC(=O)c1c(C)c2cnc(Nc3ccc(N4CCN(CC(=O)NC(C)CCCCNc5nc(C6CC6)ccc5C(=O)Nc5ccc(C)c(C6CC6)n5)CC4)cn3)nc2n(C2CCCC2)c1=O (centres unmarked) [CPD-60]")
"50 to 80%"
>>> result("CC(=O)c1c(C)c2cnc(Nc3ccc(N4CCN(CC(=O)NC5CC6(C5)CC(Nc5nc(NC(C)C)ccc5C(=O)Nc5cccc(C7CC7)n5)C6)CC4)cn3)nc2n(C2CCCC2)c1=O (centres unmarked) [CPD-139]")
"50 to 80%"
>>> result("CC(=O)c1c(C)c2cnc(Nc3ccc(N4CCN(CC(=O)NC5CC6(C5)CC(Nc5nc(C(C)C)ccc5C(=O)Nc5cccc(C7CC7)n5)C6)CC4)cn3)nc2n(C2CCCC2)c1=O (centres unmarked) [CPD-119]")
"< 30%"
>>> result("CC(=O)c1c(C)c2cnc(Nc3ccc(N4CCN(CC(=O)NC5CC6(C5)CC(Nc5nc(C)ccc5C(=O)Nc5cc(C)on5)C6)CC4)cn3)nc2n(C2CCCC2)c1=O (centres unmarked) [CPD-192]")
"< 30%"
>>> result("CNc1ccc(NC(=O)c2ccc(NC)nc2NCCCCCNC(=O)CN2CCN(c3ccc(Nc4ncc5c(C)c(C(C)=O)c(=O)n(C6CCCC6)c5n4)nc3)CC2)nn1 [CPD-110]")
"< 30%"
>>> result("CNc1ccc(C(=O)Nc2ccc(N(C)C)nn2)c(NC2CC3(CC(CNC(=O)N4CCN(c5ccc(Nc6ncc7c(C)c(C(C)=O)c(=O)n(C8CCCC8)c7n6)nc5)CC4)C3)C2)n1 (centres unmarked) [CPD-81]")
"30 to 50%"
>>> result("CC(=O)c1c(C)c2cnc(Nc3ccc(CN4CCN(CC(=O)N5CCC(Nc6nc(NC(C)C)ccc6C(=O)Nc6ccc(N(C)C)nn6)CC5)CC4)cn3)nc2n(C2CCCC2)c1=O [CPD-358]")
"< 30%"
>>> result("CNc1ccc(C(=O)Nc2ccc(N(C)C)nn2)c(NC2CC(OCC(=O)N3CCN(c4ccc(Nc5ncc6c(C)c(C(C)=O)c(=O)n(C7CCCC7)c6n5)nc4)CC3)C2)n1 (centres unmarked) [CPD-168]")
"50 to 80%"
>>> result("CNc1ccc(C(=O)Nc2cccc(C3CC3)n2)c(NCCCCCNC(=O)CN2CCN(c3ccc(Nc4ncc5c(C)c(C(C)=O)c(=O)n(C6CCCC6)c5n4)nc3)CC2)n1 [CPD-51]")
"50 to 80%"
>>> result("[2H]C([2H])([2H])Nc1ccc(C(=O)Nc2ccc(F)c(C3CC3)n2)c(NC2CC3(CC(NC(=O)CN4CCN(c5ccc(Nc6ncc7c(C)c(C(C)=O)c(=O)n(C8CCCC8)c7n6)nc5)CC4)C3)C2)n1 (centres unmarked) [CPD-239]")
"30 to 50%"
